Test system: IGROV-1
Assay: NCI tumour cell line growth inhibition, 48 h
Activity calls are given as the source filed them. Cut-off read from the data, not from the text of the source: active = GI50 up to about 1.1 µM and inactive = higher.
Use one of these outcomes when replying: Yes = active, No = inactive

>  <compound>
Nc1nc(N)c2nc(CNc3ccc(C(=O)NC(CCC(=O)O)C(=O)O)cc3F)cnc2n1 (stereo not drawn)

>  <class.name>
Yes

$$$$
>  <compound>
O=C(O)Cc1nc[nH]c1C(=O)O

>  <class.name>
No

$$$$
>  <compound>
CCCCCCC(C)CC(CCCCCC)NCCOC(=O)c1ccc([N+](=O)[O-])cc1 (stereo not drawn)

>  <class.name>
No

$$$$
>  <compound>
O=S(=O)(O)c1ccc([Se][Se]c2ccc(S(=O)(=O)O)cc2)cc1

>  <class.name>
No

$$$$
>  <compound>
NC(=S)Nc1nnc(-c2ccc(-c3nnc(NC(N)=S)o3)cc2)o1

>  <class.name>
No

$$$$

Task: Fill in: this test's call for `Cc1ccc(C(=O)c2[nH]c(NCc3ccccc3)c(C(=S)Nc3ccccc3)c2N)cc1` is ___
Output: No

Task: Fill in: this test's call for `Cc1nc(N)nc(N)c1CCCc1ccccc1` is ___
Output: No

Task: Fill in: this test's call for `COC(=O)CCC(=O)Nc1ccc(Cl)cc1C` is ___
Output: No

Task: Fill in: this test's call for `CC#Cc1ccc(-c2ccccc2)s1` is ___
Output: No

Task: Fill in: this test's call for `CC(=O)O/C(C)=C\C(=O)O/N=C(\N)c1ccc(C)cc1` is ___
Output: No

* * *

System: MDA-MB-435
Test: NCI tumour cell line growth inhibition, 48 h
The source made the active and inactive calls. No stated cut-off is given here; in the data, active = GI50 up to about 1.1 µM and inactive = higher.
reported.property: GI50

Here's what some known entries look like.
>  <molecule>
Cc1cccc2c1NC(=S)[C@@H]1CCCN1C2=O

>  <GI50>
> 100 µM (inactive)

$$$$
>  <molecule>
CN(C)C(=S)/N=c1\ssc(=S)n1Cc1ccco1

>  <GI50>
0.274 µM (active)

$$$$
>  <molecule>
CC(C)CCCC(C)[C@H]1CC[C@H]2NCCCC[C@]12C (stereo partly specified)

>  <GI50>
2.01 µM (inactive)

$$$$
>  <molecule>
Oc1cccc(/C=N/N=c2/[nH][nH]/c(=N/N=C/c3cccc(O)c3)c3ccccc23)c1

>  <GI50>
22.9 µM (inactive)

$$$$
>  <molecule>
CCOC(=O)CC/C(=N/Nc1ccc(Cl)cc1[N+](=O)[O-])C(=O)OCC

>  <GI50>
> 100 µM (inactive)

$$$$

Task: Which GI50 value is on record for `CC1=NN2CCC(=O)N=C2S1` ?
Output: > 100 µM (inactive)

* * *

System: MOLT-4
Test: NCI tumour cell line growth inhibition, 48 h
The source made the active and inactive calls. No stated cut-off is given here; in the data, active = GI50 up to about 1.1 µM and inactive = higher.
reported.property: GI50

Here's what some known entries look like.
>  <compound>
C#CC[C@]12CC(=O)CC[C@H]1CC1(C2)OCCO1

>  <GI50>
> 100 µM (inactive)

$$$$
>  <compound>
COC(=O)C1(C(C)C)CCc2c(OC)ccc(OC)c2C1=O (centres undefined)

>  <GI50>
74.3 µM (inactive)

$$$$
>  <compound>
Cc1csc2nc3c(cnn3C)c(=S)n12

>  <GI50>
> 100 µM (inactive)

$$$$
>  <compound>
COc1ccc2c(c1)/C(=C(\C(Cl)=C(Cl)Cl)[N+](=O)[O-])N2

>  <GI50>
24.2 µM (inactive)

$$$$
>  <compound>
O=C([O-])C(O)C(O)C(O)C(O)C(=O)O.[K+] (centres undefined)

>  <GI50>
> 100 µM (inactive)

$$$$

Task: Which GI50 value is on record for `COc1ccc2cc(C(=O)Nc3ccc(O)c(C(=O)O)c3)ccc2c1OC` ?
Output: > 100 µM (inactive)

Task: Which GI50 value is on record for `FC(F)(F)c1ccccc1N1CCN(c2nc(-c3cccs3)nc3ccc(Br)cc23)CC1` ?
Output: 44.5 µM (inactive)

Task: Which GI50 value is on record for `Cc1cc(C)nc(NS(=O)(=O)c2ccc(NC(=O)c3cccc4c(Nc5ccc(S(=O)(=O)Nc6nc(C)cc(C)n6)cc5)c5ccccc5nc34)cc2)n1` ?
Output: 22.4 µM (inactive)

Task: Which GI50 value is on record for CC(C)NC(=O)OCCN=C1c2ccccc2C(Br)C(Br)c2ccccc21 (centres undefined) ?
Output: 6.19 µM (inactive)

Task: Which GI50 value is on record for `COc1ccc(OC)c(/C=C(/C#N)c2ccccc2)c1` ?
Output: 12.9 µM (inactive)

Task: Which GI50 value is on record for CSC1(C)CC2C(CC1N1CCCCC1)C2(C)C (centres undefined) ?
Output: > 100 µM (inactive)

Task: Which GI50 value is on record for `O=C(/C=N/O)Nc1ccc(Cl)c(I)c1` ?
Output: 19.6 µM (inactive)

Task: Which GI50 value is on record for Nc1nc(N)c2nc(CNc3ccc(C(=O)NC(CCC(=O)O)C(=O)O)cc3F)cnc2n1 (centres undefined) ?
Output: < 0.01 µM (active)

Task: Which GI50 value is on record for `Cc1ccc(S(=O)(=O)N/N=c2\c(C)c(C3=NS(=O)(=O)c4cc(S(N)(=O)=O)c(Cl)cc4N3)oc3c(Cl)cc(Cl)cc23)cc1` ?
Output: > 100 µM (inactive)

Task: Which GI50 value is on record for O=[N+]([O-])c1nccn1CC(O)CN1CC1 (centres undefined) ?
Output: 32 µM (inactive)

Task: Which GI50 value is on record for CC(=O)OCC1OC(NC(=S)N/N=C2\CC(c3ccccc3)Oc3ccccc32)C(OC(C)=O)C(OC(C)=O)C1OC(C)=O (centres undefined) ?
Output: > 100 µM (inactive)

* * *

Tested on: BT-549
Experiment: NCI tumour cell line growth inhibition, 48 h
Active and inactive are the calls of the source. Rule as the data show it: active = GI50 up to about 1.1 µM and inactive = higher.
Use one of these outcomes when replying: TRUE for active, FALSE for inactive

Reference set (6 entries):
>  <molecule>
Cc1ccc(C(=O)c2[nH]c(NCc3ccccc3)c(C(=S)Nc3ccccc3)c2N)cc1

>  <class.name>
FALSE

$$$$
>  <molecule>
COC(=O)[C@]12CC=C3O[C@@H]4OC5(CCCCC5)O[C@@H]4[C@H]3C1C(=O)C=CC2=O (stereo partly specified)

>  <class.name>
FALSE

$$$$
>  <molecule>
COc1ccc2c(c1)/C(=C(\C(Cl)=C(Cl)Cl)[N+](=O)[O-])N2

>  <class.name>
FALSE

$$$$
>  <molecule>
CCN(CC)CCNc1ccc2ncn3c4ccc(OC)cc4c(=O)c1c23

>  <class.name>
FALSE

$$$$
>  <molecule>
O=C(O)c1cccc(OCCOc2cccc(C(=O)O)c2[N+](=O)[O-])c1[N+](=O)[O-]

>  <class.name>
FALSE

$$$$
>  <molecule>
Oc1cccc(/C=N/N=c2/[nH][nH]/c(=N/N=C/c3cccc(O)c3)c3ccccc23)c1

>  <class.name>
FALSE

$$$$

Task: Fill in: this test's call for `Cc1csc2n(C)c(=O)c3ccccc3[n+]12` is ___
Output: FALSE

Task: Fill in: this test's call for `CN(C)C(=S)N/N=C\C=N/NC(=S)N(C)C` is ___
Output: FALSE

Task: Fill in: this test's call for O=S(=O)(CCC[C@H]1[C@@H](CCOCc2ccccc2)C2CCCN1O2)c1ccccc1 (stereo partly specified) is ___
Output: FALSE

Task: Fill in: this test's call for `Cn1c(N)cc(=O)nc1N` is ___
Output: FALSE

Task: Fill in: this test's call for `O=C(NCc1ccccc1)c1cc2ccccc2o/c1=N\c1ccccc1F` is ___
Output: FALSE

* * *

System: HCT-116
Assay: NCI tumour cell line growth inhibition, 48 h
Activity calls are given as the source filed them. No stated cut-off is given here; in the data, active = GI50 up to about 1.1 µM and inactive = higher.
Use one of these outcomes when replying: active, inactive

>  <molecule>
CC(C)[C@@H]1NC(=O)[C@@H]2N=C(O[C@H]2C)[C@H](C(C)C)NC(=O)C2N=C1O[C@H]2C

>  <class.name>
inactive

$$$$
>  <molecule>
O=C(/C=C\c1ccc(/C=C/C(=O)Nc2cccc(C3=NCCCN3)c2)cc1)Nc1cccc(C2=NCCCN2)c1

>  <class.name>
inactive

$$$$
>  <molecule>
CC(C)(C)OC(=O)NC(Cc1ccc(OCc2ccccc2)cn1)C(N)=O (stereo not given)

>  <class.name>
inactive

$$$$
>  <molecule>
O=C(O)c1cccc(OCCOc2cccc(C(=O)O)c2[N+](=O)[O-])c1[N+](=O)[O-]

>  <class.name>
inactive

$$$$

Task: Fill in: this test's call for `CN(C)CC(C)(C)C(/C=C/c1ccccc1)=N\Nc1ccccc1` is ___
Output: active

* * *

Tested on: HCT-15
Test: NCI tumour cell line growth inhibition, 48 h
reported.property: GI50 (µM)
State just the number; it will be interpreted in µM.

>  <molecule>
CCC(C=O)P1(=O)OC(C)(C)CN1C(C)(C)C (stereo unspecified)

>  <GI50 (µM)>
99.8

$$$$
>  <molecule>
CN(C)CC(C)(C)C(/C=C/c1ccccc1)=N\Nc1ccccc1

>  <GI50 (µM)>
0.309

$$$$
>  <molecule>
CC(C)CCCC(C)[C@H]1CC[C@H]2NCCCC[C@]12C (stereo partly specified)

>  <GI50 (µM)>
2.43

$$$$

Task: Which GI50 value is on record for `O=C(/C(=C(/Br)I)c1ccccc1)c1ccccc1` ?
Output: 25.1

Task: Which GI50 value is on record for COc1cc(C2CC(C)(Nc3ccccc3)Oc3cc4c(cc32)OCO4)cc(OC)c1OC (stereo unspecified) ?
Output: 0.161

Task: Which GI50 value is on record for `C=C1CC/C=C(\C)CCC[C@H](C)[C@@H](O)[C@@H]2OC(=O)C(=C)[C@@H]2C[C@H]1O` ?
Output: 3.42

Task: Which GI50 value is on record for `Cc1ccc(C(=O)c2[nH]c(NCc3ccccc3)c(C(=S)Nc3ccccc3)c2N)cc1` ?
Output: 2.14

Task: Which GI50 value is on record for `COc1cc(-c2ccccc2)cn2c1nc1ccccc12` ?
Output: 15.3

Task: Which GI50 value is on record for CC[C@H](C)[C@H]1NC(=O)[C@@H](NC(=O)[C@@H](CC(C)C)N(C)C(=O)C2CCCN2C(=O)[C@H](C)O)[C@@H](C)OC(=O)[C@H](Cc2ccccc2)N(C)C(=O)[C@@H]2CCCN2C(=O)[C@H](CC(C)C)NC(=O)[C@@H](C)C(=O)[C@H](C(C)C)OC(=O)C[C@@H]1O (stereo partly specified) ?
Output: 0.00757

Task: Which GI50 value is on record for CCOC1C=CC(=O)C(CO)O1 (stereo unspecified) ?
Output: 10

Task: Which GI50 value is on record for `COc1ccccc1-c1cc(O)c2ccc(C)nc2n1` ?
Output: 43.4

Task: Which GI50 value is on record for Cc1ccc(S(=O)(=O)OC2CSSCC2OS(=O)(=O)c2ccc(C)cc2)cc1 (stereo unspecified) ?
Output: 10.2

Cited source for all entries: ChEMBL document CHEMBL1201862
